# assay_explanation: In vitro cytotoxicity, resazurin assay
# Assay type: cell-based, human
# study_conditions: human, HeLa cell viability at 10 µg/mL, 24 h; read-out: Viability % ± SD at 10 μg/mL

compound	viability at 24 h, 10 µg/mL, %
COC(=O)c1cc(O)c(O)c(O)c1 [Methyl gallate (9), methyl gallate]	68

----------
# assay_explanation: In vitro cytotoxicity, resazurin assay
# Type: cell-based, human
# study_conditions: human, HeLa cells; HeLa cell viability at 50 µg/mL, 24 h; read-out: Viability % ± SD at 50 μg/mL
property_name: viability at 24 h, 50 µg/mL (%)

1) COc1c(-c2ccc(O)c(O)c2)oc2cc(O)cc(O)c2c1=O 4.5
